System: SW-620 colon
Assay comment: NCI-60 one-dose screen, 48 h (100 = growth as untreated, 0 = no growth, -100 = all killed)
Measurement parameters: 10 µM unless noted
About 83,000 compounds went through this panel and 20% of them were active in at least one assay; those are over-represented in the sample as a whole.
Would you mind sorting the entries by growth according to these classes? lower band = under -10%, central band = from -10% up to 70%, upper band = 70% and over

// query Classify this compound: N/N=C(\N)c1c(N)nc(=S)[nH]c1-c1ccc(Cl)cc1Cl
// result upper band

// query Band of O=C(COc1ccc(NC(=O)Nc2ccc(Cl)cc2)cc1)N/N=C/c1ccccc1 ?
// result lower band

// query Category lookup for the compound O=c1[nH]c(=O)c2c(-c3cc4ccccc4oc3=O)ccnc2[nH]1
// result upper band

// query # classify by growth band: COc1ccc(C(=O)/C=C/c2ccc(OCc3ccccc3)c(OC)c2)cc1OC
// result central band

// query Classify this compound: Cn1cc(-c2cc(N)n3nc(-c4cn(C)c5ccccc45)cc3n2)c2cc(Br)ccc21
// result lower band

// query Which category fits this record: CN(C)CCCNC(=O)c1cc(NC(=O)c2cc(NC(=O)c3ccc(C#Cc4ccccc4)cc3)cn2C)cn1C
// result lower band

// query Which class does Cc1ccc(-c2nc(C#N)c(S(=O)(=O)N3CCN(S(=O)(=O)c4ccccc4)CC3)o2)cc1 fall in?
// result lower band

// query Category of CN(C)CCOc1ccc(C(=O)C2[C@H](c3ccc(Cl)cc3)[C@@H](c3ccccc3)NC23C(=O)Nc2ccccc23)cc1 (stereo partly specified) :
// result lower band

// query Consider Nc1nnc(-c2c[nH]c3ccc(Br)cc23)c(-c2c[nH]c3ncc(Br)cc23)n1 . To which growth class does it belong?
// result central band

// query Please report the category associated with O=c1onc(-c2cc3ccccc3nc2Cl)n1-c1cccc2ccccc12 , nothing else.
// result central band

// query Entry c1ccc(-c2csc(Nc3cccc(Nc4nc(-c5ccccc5)cs4)c3)n2)cc1 belongs to which category?
// result central band

// query Class label required: Nc1nc(-c2ccccc2)c(N=Nc2ccc([N+](=O)[O-])cc2Cl)s1
// result upper band

// query Quick check: band for C=C1CC[C@@H]2[C@]3(C)COC(c4cn[nH]c4-c4ccc(Br)cc4)O[C@@H]3CC[C@@]2(C)[C@@H]1C/C=C1/C(=O)OCC1O (stereo partly specified)
// result lower band

// query Band assignment needed for COc1ccc(NC(=O)[C@H](C)N)cc1C(=O)Nc1cccc(C2CC(=O)c3c(cc(OC)c(OC)c3OC)O2)c1 (stereo partly specified) please.
// result upper band

// query Bin this entry: CN1CCN(c2ccc3c(c2)nc(NNC(=O)c2cnccn2)c2cccn23)CC1
// result central band

// query // return the class label for CN(C)c1nc(NCCNS(=O)(=O)c2ccc(C(=O)/C=C/c3ccc(Cl)cc3)cc2)nc(Nc2ccc(F)cc2)n1
// result lower band

// query Pick a category. Item: COc1ccc2c(c1)c(-c1cc3nc(-c4cn(C)c5ncc(Br)cc45)cc(N)n3n1)cn2C
// result lower band

// query Class label required: C#CCOc1ccc(/C=N/Nc2nc(-c3cc4cc(Br)ccc4oc3=O)cs2)cc1OC
// result upper band

// query Into which category would you place COc1ccc(C(SCCNCc2cc(N(C)C)ccn2)(c2ccccc2)c2ccccc2)cc1 ?
// result lower band

// query Which class does CCOC(=O)c1ccc(Nc2nc(NN)nc(-c3ccc(F)cc3)c2C#N)cc1 fall in?
// result upper band

// query Hello team, could you let me know which band the following compound falls into: CCOC(=O)c1ccc(Nc2nc(NN)nc(-c3ccc(OC)cc3)c2C#N)cc1
// result upper band

// query Please indicate the class for S=C(NCCc1ccccc1)Nc1ccc(OCc2nc3ccccc3[nH]2)cc1 based on its growth.
// result upper band

// query In plain terms, what class is COc1cccc(-c2nc(Nc3ccc(S(N)(=O)=O)cc3)c3ccccc3n2)c1 ?
// result central band

// query Note: place this compound into its band. Item: CC(C)CSc1nc(NCCc2c[nH]c3ccccc23)c(C#N)c(-c2ccc(F)cc2)n1
// result central band

// query Please indicate the class for C#CCOc1cc(N(CC)CC)ccc1C(C(=O)NC(C)(C)C)N(C(=O)C1CCc2cc(F)ccc2O1)c1cc(C)cc(C)c1 (stereo unspecified) based on its growth.
// result central band

// query Would you mind sorting CCN(CC)c1ccnc(CNCCSC(c2ccccc2)(c2ccccc2)c2ccc(OC)cc2)c1 into the appropriate category?
// result lower band

// query Any idea which band CC(=O)OCC1OC(OC2C(COC(C)=O)OC(n3cc(COc4ccc5ccc(=O)oc5c4)nn3)C(OC(C)=O)C2OC(C)=O)C(OC(C)=O)C(OC(C)=O)C1OC(C)=O (stereo unspecified) is in?
// result upper band

// query For CN1C(=O)/C(=C/c2ccc(C(=O)Nc3ncc(Cc4ccc(Cl)cc4Cl)s3)cc2)SC1=S , which growth bin applies?
// result central band

// query Which category fits this record: C#C[C@]1(O)CC[C@H]2[C@@H]3CC=C4c5sc(-c6ccc([N+](=O)[O-])cc6)nc5CC[C@]4(C)[C@H]3CC[C@@]21C
// result lower band

// query Categorize the following entry: COc1c(F)ccc(C(=O)Nc2ccc3nc(NC(=O)C4CCCN(S(=O)(=O)c5ccc(Br)c(F)c5)C4)sc3c2)c1F (stereo unspecified)
// result upper band

// query Lab note: which band did C=C1CCC2C3(C)COC(c4cc(F)cc(F)c4)OC3CCC2(C)C1CC(O)C1=CCOC1=O (stereo unspecified) land in?
// result lower band

// query Bin? O=C(Nc1cccc(-n2cnc3cc(-c4ccc(O)cc4)ccc32)c1)C1CC1
// result central band

// query Field: class (growth) — entry: COc1ccc2oc3c4[nH]c5ccccc5c4c4c(c3c2c1)C(=O)N(C(=O)OC(C)(C)C)C4=O
// result central band

// query Lab log: COc1ccc(-c2ccnc(SCc3cc4cc(OC)ccc4[nH]c3=O)n2)cc1 — assign growth category
// result central band

// query // bin(item) where item = O=C(c1ccccc1)C(c1c[nH]c2ccccc12)c1c[nH]c2ccccc12
// result central band

* * *

Test system: NCI-H460 lung
Assay comment: NCI-60 one-dose screen, 48 h (100 = growth as untreated, 0 = no growth, -100 = all killed)
Measurement parameters: 10 µM unless noted
The panel holds about 83,000 compounds, 20% with a hit somewhere; the sample as a whole holds those more often.
Exercise: for every item that follows, state its recorded growth.
Give your result in % as a bare value.

// query Look up growth: COc1ccc2[nH]c(O)c(N=NC(=O)Cn3c(-c4ccccc4)nc4cc(C)ccc43)c2c1
// result 44.3

// query Field request: growth | item: NC(=S)Nc1cccc(NC(N)=S)c1
// result 110

// query # growth lookup, item CNS(=O)(=O)c1ccc(Nc2ccc(C(F)(F)F)cc2)c(-c2cn(C)cn2)c1
// result 33.7

// query Need growth of CC(=O)c1cc(C(=O)c2ccccc2)n2c1ccc1ccccc12 , thanks.
// result 111

// query For the molecule CC(=O)NNc1ccc2nnc(-c3ccccc3)n2n1 , what growth is on record?
// result 106

// query # input molecule: COc1ccc(NC(=O)[C@H](CO)NC(=O)OC(C)(C)C)cc1C(=O)Nc1cccc(C2CC(=O)c3c(cc(OC)c(OC)c3OC)O2)c1 (some centres undefined) ; wanted: its growth
// result 55.3

// query What growth value was documented for this molecule, Cn1cc(-c2nc(N)nnc2-c2c[nH]c3ccc(Br)cc23)c2cccnc21 ?
// result 32.8

// query Entry CC(=O)Nc1ccc(-c2cn(-c3cccc(C(=O)Nc4ccc(N5CCN(C)CC5)cc4)c3)nn2)cn1 : reported growth = ?
// result 90.4

// query Quick one: growth of C#CCOc1cc(N(CC)CC)ccc1C(C(=O)NC(C)(C)C)N(C(=O)C1CCc2cc(F)ccc2O1)c1ccc(Br)cc1 (centres undefined) ?
// result 60.3
